Data origin: PubChem BioAssay (NCI)

System: NCI-H226 lung
method_summary: NCI-60 one-dose screen, 48 h (100 = growth as untreated, 0 = no growth, -100 = all killed)
assay_context: 10 µM unless noted
Compounds without any hit were thinned out: in the full panel of roughly 83,000, 20% have a hit.
Task for the reader: assign each of the following compounds its reported growth.
Give bare numbers, in %.

Below: 2 compounds and their reported growth.
{"smiles_data": "O=C1OC(c2ccc(Cl)c(Cl)c2)=C/C1=C/c1cccc([N+](=O)[O-])c1", "readout_unit": "%", "measured": 86.3}
{"smiles_data": "CC1(C)C(=O)/C(=C\\c2cccnc2)C[C@]2(C)[C@H]3CC[C@@H]4[C@@H](C(=O)/C=C/c5ccncc5)CC[C@@]4(C)[C@]3(C)CC[C@@H]12", "readout_unit": "%", "measured": 1.56}

Proceed to the following item.
Give its growth value. Item: `Cc1[c-]onc1C.Cc1[c-]onc1C.[Ag].[Ag].[NH-]S(=O)(=O)c1ccc(N=Nc2cc(N=Nc3ccc(S([NH-])(=O)=O)cc3)c3c(NC(=O)C(Cl)Cl)cccc3c2OC(=O)C(Cl)Cl)cc1`
94.8
